System: Lindernia pyxidaria
METHOD: Test Example 12: herbicidal effect test by treatment during growing period in paddy field
Assay type: in vivo
CONDITION INFO: 120 g/10a; treatment seven days after sowing in flooded paddy pot; assessed 14 days after treatment
QUANTITY: Weed suppression rate (%) Lindemia pyxidaria

MOLECULAR STRING: Cc1cc(C)c(S(=O)(=O)n2ncn(C(=O)N(c3c(F)cc(F)cc3F)C(C)C)c2=O)c(C)c1
ASSAYED SYSTEM: Lindernia pyxidaria
RESULT: 70%
//
MOLECULAR STRING: CC(C)N(C(=O)n1cnn(S(=O)(=O)C2CC2)c1=O)c1ccc(Cl)nc1Cl
ASSAYED SYSTEM: Lindernia pyxidaria
RESULT: 80%
//
MOLECULAR STRING: Cc1ccc(N(C(=O)n2cnn(S(=O)(=O)c3ccccc3Cl)c2=O)C(C)C)c(F)c1
ASSAYED SYSTEM: Lindernia pyxidaria
RESULT: 80%
//
MOLECULAR STRING: CC(C)N(C(=O)n1cnn(S(=O)(=O)C(C)C)c1=O)c1c(F)cccc1F
ASSAYED SYSTEM: Lindernia pyxidaria
RESULT: 100%
//
MOLECULAR STRING: CC(C)N(C(=O)n1cnn(S(=O)(=O)C2CCCCC2)c1=O)c1c(F)c(F)cc(F)c1F
ASSAYED SYSTEM: Lindernia pyxidaria
RESULT: 80%
//
MOLECULAR STRING: CC(C)N(C(=O)n1cnn(S(=O)(=O)C(C)C)c1=O)c1ccccc1F
ASSAYED SYSTEM: Lindernia pyxidaria
RESULT: 90%
//
MOLECULAR STRING: CC(C)N(C(=O)n1cnn(S(=O)(=O)c2ccccc2Cl)c1=O)c1ccc(F)cc1F
ASSAYED SYSTEM: Lindernia pyxidaria
RESULT: 100%
//
MOLECULAR STRING: CCN(CC)C(=O)n1cnn(S(=O)(=O)c2ccccc2C)c1=O
ASSAYED SYSTEM: Lindernia pyxidaria
RESULT: 50%
//
MOLECULAR STRING: CC(C)N(C(=O)n1cnn(S(=O)(=O)C(C)C)c1=O)c1ccc(F)c(F)c1F
ASSAYED SYSTEM: Lindernia pyxidaria
RESULT: 80%
//
MOLECULAR STRING: CN(C(=O)n1cnn(S(=O)(=O)c2ccc(C(C)(C)C)cc2)c1=O)c1ccc(F)cc1F
ASSAYED SYSTEM: Lindernia pyxidaria
RESULT: 70%
//
MOLECULAR STRING: Cc1cc(C)c(S(=O)(=O)n2ncn(C(=O)N(c3cccc(F)c3)C(C)C)c2=O)c(C)c1
ASSAYED SYSTEM: Lindernia pyxidaria
RESULT: 90%
//
MOLECULAR STRING: Cc1ccc(S(=O)(=O)n2ncn(C(=O)N(c3cccc(F)c3)C(C)C)c2=O)cc1
ASSAYED SYSTEM: Lindernia pyxidaria
RESULT: 80%
//
MOLECULAR STRING: CC(C)N(C(=O)n1cnn(S(=O)(=O)N(C)C)c1=O)c1ccc(Cl)cc1F
ASSAYED SYSTEM: Lindernia pyxidaria
RESULT: 90%
//
MOLECULAR STRING: CC(C)N(C(=O)n1cnn(S(=O)(=O)c2ccc(C(C)(C)C)cc2)c1=O)c1ccc(F)cc1F
ASSAYED SYSTEM: Lindernia pyxidaria
RESULT: 90%
//
MOLECULAR STRING: COc1ccc(S(=O)(=O)n2ncn(C(=O)N(c3c(F)cc(F)cc3F)C(C)C)c2=O)cc1
ASSAYED SYSTEM: Lindernia pyxidaria
RESULT: 80%
//
MOLECULAR STRING: CC(C)N(C(=O)n1cnn(S(=O)(=O)C2CCCCC2)c1=O)c1ccc(C(F)(F)F)cc1Cl
ASSAYED SYSTEM: Lindernia pyxidaria
RESULT: 80%

* * *

Tested on: Amaranthus viridis
METHOD: Test Example 14: herbicidal effect test by foliage treatment in upland field
Format: in vivo
CONDITION INFO: 7 days after sowing, 120 g/10a, 14 days after treatment

MOLECULAR STRING: CC(C)N(C(=O)n1cnn(S(C)(=O)=O)c1=O)c1ccccc1
ASSAYED SYSTEM: Amaranthus viridis
herbicidal effect, Amaranthus viridis / %: 90

MOLECULAR STRING: O=C(N(CC(F)(F)F)c1ccc(F)cc1F)n1cnn(S(=O)(=O)C2CC2)c1=O
ASSAYED SYSTEM: Amaranthus viridis
herbicidal effect, Amaranthus viridis / %: 80

MOLECULAR STRING: CN(C(=O)n1cnn(S(=O)(=O)C2CCCCC2)c1=O)c1ccc(F)cc1F
ASSAYED SYSTEM: Amaranthus viridis
herbicidal effect, Amaranthus viridis / %: 70

MOLECULAR STRING: CC(C)N(C(=O)n1cnn(S(=O)(=O)c2cccc(F)c2)c1=O)c1ccccc1
ASSAYED SYSTEM: Amaranthus viridis
herbicidal effect, Amaranthus viridis / %: 40

MOLECULAR STRING: CCS(=O)(=O)n1ncn(C(=O)N(c2c(F)cc(F)cc2F)C(C)C)c1=O
ASSAYED SYSTEM: Amaranthus viridis
herbicidal effect, Amaranthus viridis / %: 30

MOLECULAR STRING: CC(C)N(C(=O)n1cnn(S(=O)(=O)C(C)C)c1=O)c1ccc(F)c(F)c1F
ASSAYED SYSTEM: Amaranthus viridis
herbicidal effect, Amaranthus viridis / %: 100

MOLECULAR STRING: CC(C)N(C(=O)n1cnn(S(=O)(=O)C2CC2)c1=O)c1ccc(F)cc1Cl
ASSAYED SYSTEM: Amaranthus viridis
herbicidal effect, Amaranthus viridis / %: 70

MOLECULAR STRING: CC(C)N(C(=O)n1cnn(S(=O)(=O)C(C)C)c1=O)c1ncc(Cl)cc1Cl
ASSAYED SYSTEM: Amaranthus viridis
herbicidal effect, Amaranthus viridis / %: 90

MOLECULAR STRING: CC(C)N(C(=O)n1cnn(S(=O)(=O)N(C)C)c1=O)c1ccc(F)cc1Cl
ASSAYED SYSTEM: Amaranthus viridis
herbicidal effect, Amaranthus viridis / %: 90

MOLECULAR STRING: CC(C)N(C(=O)n1cnn(S(=O)(=O)C(C)C)c1=O)c1ccccc1
ASSAYED SYSTEM: Amaranthus viridis
herbicidal effect, Amaranthus viridis / %: 40

* * *

Each entry below lists one item and its recorded herbicidal effect, Amaranthus viridis value.
Test system: Amaranthus viridis
METHOD: Test Example 14: herbicidal effect test by foliage treatment in upland field
Format: in vivo
CONDITION INFO: 7 days after sowing, 120 g/10a, 14 days after treatment

MOLECULAR STRING: CC(C)N(C(=O)n1cnn(S(=O)(=O)C2CC2)c1=O)c1ccc(F)cc1
herbicidal effect, Amaranthus viridis / %: 90
//
MOLECULAR STRING: CC(C)N(C(=O)n1cnn(S(=O)(=O)c2cccs2)c1=O)c1ccc(F)cc1F
herbicidal effect, Amaranthus viridis / %: 0
//
MOLECULAR STRING: CC(C)N(C(=O)n1cnn(S(C)(=O)=O)c1=O)c1c(F)cccc1F
herbicidal effect, Amaranthus viridis / %: 30
//
MOLECULAR STRING: CCN(CC)S(=O)(=O)n1ncn(C(=O)N(c2ccc(F)cc2F)C(C)C)c1=O
herbicidal effect, Amaranthus viridis / %: 90
//
MOLECULAR STRING: CC(C)N(C(=O)n1cnn(S(=O)(=O)C(C)C)c1=O)c1ccc(Cl)cn1
herbicidal effect, Amaranthus viridis / %: 90
//
MOLECULAR STRING: CC(C)N(C(=O)n1cnn(S(=O)(=O)C2CCCCC2)c1=O)c1cccc(F)c1F
herbicidal effect, Amaranthus viridis / %: 60
//
MOLECULAR STRING: CC(C)N(C(=O)n1cnn(S(=O)(=O)C2CCCCC2)c1=O)c1ccc(Cl)cc1Br
herbicidal effect, Amaranthus viridis / %: 70
//
MOLECULAR STRING: CC(C)N(C(=O)n1cnn(S(=O)(=O)C2CC2)c1=O)c1ccc(F)cc1F
herbicidal effect, Amaranthus viridis / %: 90

* * *

Tested on: Lindernia pyxidaria
METHOD: Test Example 12: herbicidal effect test by treatment during growing period in paddy field
Type: in vivo
CONDITION INFO: 120 g/10a; treatment seven days after sowing in flooded paddy pot; assessed 14 days after treatment
QUANTITY: Weed suppression rate (%) Lindemia pyxidaria

MOLECULAR STRING: CC(C)N(C(=O)n1cnn(S(=O)(=O)c2cccs2)c1=O)c1ccc(F)cc1F
UNIT ANNOTATION: %
QUANTITATIVE RESULT: 90
--
MOLECULAR STRING: CCN(CC)C(=O)n1cnn(S(=O)(=O)c2ccccc2)c1=O
UNIT ANNOTATION: %
QUANTITATIVE RESULT: 70
--
MOLECULAR STRING: CC(C)N(C(=O)n1cnn(S(=O)(=O)N(C)C)c1=O)c1ccc(F)cc1F
UNIT ANNOTATION: %
QUANTITATIVE RESULT: 90
--
MOLECULAR STRING: CCN(CC)C(=O)n1cnn(S(=O)(=O)c2ccc(F)cc2)c1=O
UNIT ANNOTATION: %
QUANTITATIVE RESULT: 80
--
MOLECULAR STRING: CC(C)N(C(=O)n1cnn(S(=O)(=O)C2CCCCC2)c1=O)c1ccccc1F
UNIT ANNOTATION: %
QUANTITATIVE RESULT: 100
--
MOLECULAR STRING: CC(C)N(C(=O)n1cnn(S(=O)(=O)c2cccc(Cl)c2)c1=O)c1ccc(F)c(F)c1F
UNIT ANNOTATION: %
QUANTITATIVE RESULT: 70
--
MOLECULAR STRING: CC(C)N(C(=O)n1cnn(S(C)(=O)=O)c1=O)c1ccc(F)cc1F
UNIT ANNOTATION: %
QUANTITATIVE RESULT: 100
--
MOLECULAR STRING: CC(C)N(C(=O)n1cnn(S(=O)(=O)C2CCCCC2)c1=O)c1c(F)cccc1F
UNIT ANNOTATION: %
QUANTITATIVE RESULT: 80
